Measured Kd accompanies every entry in the list below.
molecular target: T1, Full-length human HER3 extracellular domain (ECD) (human, UniProt P21860 20-643); assay: affinity summary table, method not given
T1 construct: also called human HER3 ECD; HER-3 ECD full length
T1 sequence (P21860 20-643): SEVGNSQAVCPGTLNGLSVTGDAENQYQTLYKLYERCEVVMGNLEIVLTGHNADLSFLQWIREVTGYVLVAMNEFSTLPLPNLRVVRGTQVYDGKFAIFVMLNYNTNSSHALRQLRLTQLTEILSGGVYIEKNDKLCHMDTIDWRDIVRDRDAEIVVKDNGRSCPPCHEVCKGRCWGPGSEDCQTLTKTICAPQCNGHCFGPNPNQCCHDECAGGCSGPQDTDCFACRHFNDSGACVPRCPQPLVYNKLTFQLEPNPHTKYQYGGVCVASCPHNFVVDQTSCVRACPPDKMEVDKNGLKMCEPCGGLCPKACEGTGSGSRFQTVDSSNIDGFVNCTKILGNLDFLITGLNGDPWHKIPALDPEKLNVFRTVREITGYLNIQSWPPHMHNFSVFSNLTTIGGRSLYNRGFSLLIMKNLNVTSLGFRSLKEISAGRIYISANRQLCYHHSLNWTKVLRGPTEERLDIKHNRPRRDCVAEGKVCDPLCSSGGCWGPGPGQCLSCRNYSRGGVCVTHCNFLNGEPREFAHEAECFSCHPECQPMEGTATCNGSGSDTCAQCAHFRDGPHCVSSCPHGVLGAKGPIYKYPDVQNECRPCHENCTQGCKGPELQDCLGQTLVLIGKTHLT

// worked examples, Kd included
[
  {
    "binder": "Murine 15D5 antibody (M5.15D5.2A1.1H10) (antibody, IgG1, V domains shown, Mouse monoclonal, IgG1; also called m15D5; M5.15D5.1C1) VH: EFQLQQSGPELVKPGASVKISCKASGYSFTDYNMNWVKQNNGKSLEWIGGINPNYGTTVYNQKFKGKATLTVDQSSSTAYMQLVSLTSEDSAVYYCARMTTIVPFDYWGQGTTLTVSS VL: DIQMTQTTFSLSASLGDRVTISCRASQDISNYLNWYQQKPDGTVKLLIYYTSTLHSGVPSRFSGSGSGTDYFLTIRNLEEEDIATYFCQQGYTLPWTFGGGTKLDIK",
    "Kd": "~2 nM"
  },
  {
    "binder": "Murine 1D9 antibody (M5.1D9.1F5) (antibody, IgG2b, V domains shown, Mouse monoclonal, IgG2b; also called m1D9) VH: QVQLQQPGAELVRPGTSVKLSCKASGYTFTSYWMHWVKQRPGQGLEWIGVIDPSDGYSHYNQKFKGKATLTVDTSSSTAYMQLSSLTSEDSAVYYCAGGLAGTLDYWGQGTTLTVSS VL: DVLMTQTPLSLPVSLGDQASISCRSSQSIVHSSGNTYLQWFLQKPGQSPKLLISKVSNRFSGVPDRFSGSGSGTDFTLRISRVEAEDLGLYYCFQGSHVPWTFGGGTKLEIK",
    "Kd": "~1 nM"
  }
]

# input for lookup
// recorded Kd for Humanized 1D9 RR antibody (H6L2) (antibody, human IgG1, V domains shown, Human IgG1; also called 1D9 H6L2 RR antibody; h1D9 RR wt) VH: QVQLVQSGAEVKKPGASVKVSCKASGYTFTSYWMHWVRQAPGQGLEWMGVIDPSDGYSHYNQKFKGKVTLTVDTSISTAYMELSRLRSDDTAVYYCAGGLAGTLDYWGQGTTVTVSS VL: DIQMTQSPSSLSASVGDRVTITCRSSQSIVHSSGNTYLQWFQQKPGKAPKLLIYKVSNRFSGVPSRFSGSGSGTDFTLTISSLQPEDFAVYYCFQGSHVPWTFGQGTKLEIKRR : 4.1 nM

Data provenance is patent US20130156779A1.
